Biological target: G-protein coupled estrogen receptor 1 (Homo sapiens) (UniProt Q99527)
Experiment: PH-RFP redistribution after GPER stimulation – imaging, Cos7 GPR30-GFP, Akt PH domain, orthogonal assay for GPR30 ligand project, confirmation (AID 1219)
Conditions: PIP3 nuclear translocation imaging, at 10 µM
Records with an inconclusive call do not appear. The source made the active and inactive calls.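 How the source made its calls: active means score of 100, fluorescent reporter fully moved to nucleus as with estrogen, or estrogen effect fully blocked; inactive means score of 0 or 50, partial or no effect.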
Outcome (select one): True for active, False for inactive

Example entries begin here.
[
  {
    "compound": "COc1ccccc1N1CCN(C(=O)c2ccc3nc(-c4ccco4)c(-c4ccco4)nc3c2)CC1",
    "class_label": "True"
  },
  {
    "compound": "Cc1cc(-c2nn3c(-c4ccccc4)nnc3s2)c2ccccc2n1",
    "class_label": "True"
  },
  {
    "compound": "Cc1cc(C)c2c(c1)[C@@H]1C=CC[C@@H]1[C@H](c1ccc(S(=O)(=O)N3CCOCC3)cc1)N2",
    "class_label": "True"
  },
  {
    "compound": "O=C(O)c1ccc2c(c1)C1C(Cl)C(Sc3ccccc3[N+](=O)[O-])CC1C(c1cccc([N+](=O)[O-])c1)N2 (configuration not stated)",
    "class_label": "False"
  },
  {
    "compound": "Nc1ncnc2c1ncn2C1CCC(CO)C(O)C1 (configuration not stated)",
    "class_label": "False"
  },
  {
    "compound": "COc1cccc(NS(=O)(=O)c2ccc3c(c2)C2C=CCC2C(c2ccc(C(=O)O)cc2)N3)c1 (configuration not stated)",
    "class_label": "False"
  }
]

We next turn to a different compound, shown below.
Ask: Entry `O=C(O)c1cc(Cl)c2c(c1)[C@@H]1C=CC[C@@H]1[C@H](c1ccc(S(=O)(=O)N3CCOCC3)cc1)N2` : call = ?
Result: False
